Test system: A10
Assay: Percent decrease in fluorescence in a membrane potential assay using the A10 cell line derived from embryonic rat aorta at 0.1 uM
Assay type: functional
measure: Decrease (%)
Please give a number only; it is taken to be in %.

Example compounds with recorded Decrease:
CNC1=NC(=O)C2(CC(C)(C)Oc3ccc([N+](=O)[O-])cc32)N1 (stereo unspecified)	38
CCCNC1=NC(=O)C2(CC(C)(C)Oc3ccc([N+](=O)[O-])cc32)N1 (stereo unspecified)	28
CSC1=NC(=O)C2(CC(C)(C)Oc3ccc([N+](=O)[O-])cc32)N1 (stereo unspecified)	11
CNC1=NC(=O)C2(CC(C)(C)Oc3ccc(Br)cc32)N1 (stereo unspecified)	22

Request: Quote Decrease reported for CCCNC1=NC(=O)C2(CC(C)(C)Oc3ccc(C#N)cc32)N1 (stereo unspecified) please.
Response: 21

Request: Supply recorded Decrease for CCNC1=NC(=O)C2(CC(C)(C)Oc3ccc([N+](=O)[O-])cc32)N1 (stereo unspecified) here.
Response: 28

Request: Give me measured Decrease, please, for this compound: CSC1=NC(=O)C2(CC(C)(C)Oc3ccc(Br)cc32)N1 (stereo unspecified)
Response: 6

Request: Consider the compound CCCSC1=NC(=O)C2(CC(C)(C)Oc3ccc(Br)cc32)N1 (stereo unspecified) and give its recorded Decrease.
Response: 6

Request: Identify the reported Decrease for the following entry. CCNC1=NC(=O)C2(CC(C)(C)Oc3ccc(Br)cc32)N1 (stereo unspecified)
Response: 26

* * *

As shown below, each of these molecules has a reported Decrease value.
Test system: A10
Assay: Percent decrease in fluorescence in a membrane potential assay using the A10 cell line derived from embryonic rat aorta at 10.0 uM
Format: functional
The reply should contain only the number, in %.

Completed entries (count: 5):
CSC1=NC(=O)C2(CC(C)(C)Oc3ccc(C#N)cc32)N1 (stereo not given)	25
CC(C)NC1=NC(=O)C2(CC(C)(C)Oc3ccccc32)N1 (stereo not given)	13
CCOC1=NC(=O)C2(CC(C)(C)Oc3ccc(F)cc32)N1 (stereo not given)	13
CC(C)NC1=NC(=O)C2(CC(C)(C)Oc3ccc(F)cc32)N1 (stereo not given)	22
CC(C)(C)CNC1=NC(=O)C2(CC(C)(C)Oc3ccccc32)N1 (stereo not given)	7

Request: Identify measured Decrease associated with CNC1=NC(=O)C2(CC(C)(C)Oc3ccc(F)cc32)N1 (stereo not given)
Response: 14

Request: Note Decrease for the molecule shown: CSC1=NC(=O)C2(CC(C)(C)Oc3ccc(F)cc32)N1 (stereo not given)
Response: 27

Request: Item CCSC1=NC(=O)C2(CC(C)(C)Oc3ccc(C#N)cc32)N1 (stereo not given) : provide Decrease
Response: 24

* * *

Tested on: Rattus norvegicus
Experiment: Change in heart rate in beats per minute in anesthetized female rats at a dose of 0.30 mg/kg and a cumulative dose of 0.44 mg/kg
Type: functional
measure: Delta HR (beats min-1)
The reply should contain only the number, in beats min-1.

The examples below pair each entry with its known result.
CCNC1=NC(=O)C2(CC(C)(C)Oc3ccc(F)cc32)N1 (stereo not given)	45.6
CCCNC1=NC(=O)C2(CC(C)(C)Oc3ccc(C#N)cc32)N1 (stereo not given)	39.2
CCCNC1=NC(=O)C2(CC(C)(C)Oc3ccc(Br)cc32)N1 (stereo not given)	92.8
CCSC1=NC(=O)C2(CC(C)(C)Oc3ccc(Br)cc32)N1 (stereo not given)	17.5

Request: Report Delta HR for CC1(C)Oc2ccc(C#N)cc2C(N2CCCC2=O)C1O (stereo not given) [CROMAKALIM]
Response: 63

* * *

Test system: A10
Test: Percent decrease in fluorescence in a membrane potential assay using the A10 cell line derived from embryonic rat aorta at 1.0 uM
Format: functional
Doc: threshold 20% (exclusive). Items with Decrease beneath it return T; others return F.

Solved cases below.
CC(C)NC1=NC(=O)C2(CC(C)(C)Oc3ccc(F)cc32)N1 (configuration not stated)	T
CCCNC1=NC(=O)C2(CC(C)(C)Oc3ccc(C#N)cc32)N1 (configuration not stated)	F
CSC1=NC(=O)C2(CC(C)(C)Oc3ccc(F)cc32)N1 (configuration not stated)	T
CCCNC1=NC(=O)C2(CC(C)(C)Oc3ccc(F)cc32)N1 (configuration not stated)	T
CCNC1=NC(=O)C2(CC(C)(C)Oc3ccc(C#N)cc32)N1 (configuration not stated)	F

Alright, here's another molecule for you.
Request: Strictly below 20% in Decrease? CNC1=NC(=O)C2(CC(C)(C)Oc3ccc(Br)cc32)N1 (configuration not stated)
Response: T

* * *

System: A10
Assay: Percent decrease in fluorescence in a membrane potential assay using the A10 cell line derived from embryonic rat aorta at 0.1 uM
Format: functional
The entries below come with measured Decrease values attached.
The figure you give is taken to be in %; do not add the unit.

Example compounds with recorded Decrease:
CCCNC1=NC(=O)C2(CC(C)(C)Oc3ccc(F)cc32)N1 (centres undefined)	10
CC(C)NC1=NC(=O)C2(CC(C)(C)Oc3ccc(Br)cc32)N1 (centres undefined)	5
CCOC1=NC(=O)C2(CC(C)(C)Oc3ccc(Br)cc32)N1 (centres undefined)	5
CCSC1=NC(=O)C2(CC(C)(C)Oc3ccc(Br)cc32)N1 (centres undefined)	18
CCNC1=NC(=O)C2(CC(C)(C)Oc3ccc(C#N)cc32)N1 (centres undefined)	8
CCNC1=NC(=O)C2(CC(C)(C)Oc3ccc(F)cc32)N1 (centres undefined)	19

From here, focus on the item given below.
Request: Identify measured Decrease corresponding to CCCNC1=NC(=O)C2(CC(C)(C)Oc3ccc(Br)cc32)N1 (centres undefined)
Response: 28

* * *

Below: a set of entries, each annotated with reported Decrease.
Test system: A10
Test: Percent decrease in fluorescence in a membrane potential assay using the A10 cell line derived from embryonic rat aorta at 1.0 uM
Assay type: functional

Reference set, count: 6
CCOC1=NC(=O)C2(CC(C)(C)Oc3ccc(Br)cc32)N1 (stereo unspecified)	20%
CCCSC1=NC(=O)C2(CC(C)(C)Oc3ccc(C#N)cc32)N1 (stereo unspecified)	17%
CCCNC1=NC(=O)C2(CC(C)(C)Oc3ccccc32)N1 (stereo unspecified)	7%
CSC1=NC(=O)C2(CC(C)(C)Oc3ccc([N+](=O)[O-])cc32)N1 (stereo unspecified)	16%
CNC1=NC(=O)C2(CC(C)(C)Oc3ccc(F)cc32)N1 (stereo unspecified)	11%
CCOC1=NC(=O)C2(CC(C)(C)Oc3ccc(F)cc32)N1 (stereo unspecified)	<5%

Request: Identify Decrease associated with the molecule CC(C)NC1=NC(=O)C2(CC(C)(C)Oc3ccc(Br)cc32)N1 (stereo unspecified)
Response: 22%

Request: Quote Decrease reported for CSC1=NC(=O)C2(CC(C)(C)Oc3ccc(Br)cc32)N1 (stereo unspecified) please.
Response: 27%

Request: Look up and state reported Decrease for CC(C)NC1=NC(=O)C2(CC(C)(C)Oc3ccc(C#N)cc32)N1 (stereo unspecified)
Response: 10%

Request: Complete the entry with Decrease for CC1(C)Oc2ccc(C#N)cc2C(N2CCCC2=O)C1O (stereo unspecified)
Response: 22%

Request: Look up and state reported Decrease for CCNC1=NC(=O)C2(CC(C)(C)Oc3ccc(F)cc32)N1 (stereo unspecified)
Response: 24%

Request: Give reported Decrease value for CNC1=NC(=O)C2(CC(C)(C)Oc3ccc(C#N)cc32)N1 (stereo unspecified)
Response: 19%

Request: State, in one line, measured Decrease of CCSC1=NC(=O)C2(CC(C)(C)Oc3ccc(C#N)cc32)N1 (stereo unspecified)
Response: 6%

Request: Determine its reported Decrease: CCCSC1=NC(=O)C2(CC(C)(C)Oc3ccc(Br)cc32)N1 (stereo unspecified)
Response: 15%

Request: Using known records, supply Decrease for CSC1=NC(=O)C2(CC(C)(C)Oc3ccc(C#N)cc32)N1 (stereo unspecified)
Response: 5%

Request: Identify Decrease associated with the molecule CCNC1=NC(=O)C2(CC(C)(C)Oc3ccc(Br)cc32)N1 (stereo unspecified)
Response: 19%
